# maps each entry to its Abs 630 (100 nM)
Molecular target: T1, human IL-10 receptor (hIL-10R alpha and beta chains) on HEK-Blue IL-10 reporter cells (human, UniProt Q13651 22-578; Q08334 20-325)
T1 sequence 1: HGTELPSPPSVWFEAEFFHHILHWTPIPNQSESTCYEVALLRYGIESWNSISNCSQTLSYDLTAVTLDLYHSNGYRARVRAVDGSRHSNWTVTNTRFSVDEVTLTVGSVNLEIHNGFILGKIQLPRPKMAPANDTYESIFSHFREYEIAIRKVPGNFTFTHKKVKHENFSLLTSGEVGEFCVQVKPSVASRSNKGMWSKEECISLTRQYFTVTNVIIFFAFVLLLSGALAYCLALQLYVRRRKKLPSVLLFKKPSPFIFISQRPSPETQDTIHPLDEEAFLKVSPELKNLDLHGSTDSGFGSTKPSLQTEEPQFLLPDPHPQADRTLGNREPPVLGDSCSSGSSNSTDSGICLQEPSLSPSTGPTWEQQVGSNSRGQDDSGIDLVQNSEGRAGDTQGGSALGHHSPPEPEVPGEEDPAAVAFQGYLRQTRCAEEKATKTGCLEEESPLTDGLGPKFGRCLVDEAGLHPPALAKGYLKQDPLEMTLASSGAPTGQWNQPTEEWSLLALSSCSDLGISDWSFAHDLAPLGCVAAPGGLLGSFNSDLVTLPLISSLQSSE
T1 sequence 2: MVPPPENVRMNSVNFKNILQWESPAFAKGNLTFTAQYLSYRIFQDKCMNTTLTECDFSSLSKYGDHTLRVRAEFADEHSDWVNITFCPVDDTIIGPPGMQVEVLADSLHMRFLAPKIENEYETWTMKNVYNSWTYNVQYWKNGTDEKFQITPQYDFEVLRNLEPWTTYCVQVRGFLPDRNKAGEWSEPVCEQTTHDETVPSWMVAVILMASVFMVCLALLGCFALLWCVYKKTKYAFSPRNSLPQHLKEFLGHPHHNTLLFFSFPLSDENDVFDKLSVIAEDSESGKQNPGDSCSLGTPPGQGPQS
Experiment: cell-based or functional assay
observed-property: Abs 630 (100 nM) (Abs 630)

binder: IL10R binding molecule of SEQ ID NO: 259 (bispecific antibody) QVQLQESGGGSVQAGGSLRLSCAASRYLYSIDYMAWFRQSPGKEREPVAVIYTASGATFYPDSVKGRFTISQDNAKMTVYLQMNSLKSEDTAMYYCAAVRKTDSYLFDAQSFTYWGQGTQVTVSSGGGSQVQLQESGGGSVQAGGSLRLSCTVSRYTASVNYMGWFRQAPGKEREGVATIFTGAGTTYYANSVKGRFTISRDNAKNTAYLQMNSLKPEDTAIYYCAVDFRGGLLYRPAYEYTYRGQGTQVTVSSASHHHHHH
observed-property: Abs 630 (100 nM)
measurement-unit: Abs 630
measured: 1.13
//
binder: IL10R binding molecule of SEQ ID NO: 294 (bispecific antibody) QVQLQESGGGSVQAGGSLRLSCGASGYTYSSYCMGWFRQVPGKEREGVAVIDSDGSTSYADSVKGRFTISKDNGKNTLYLQMNSLKPEDTAMYYCAADLGHYRPPCGVLYLGMDYWGKGTQVTVSSGGGSQVQLQESGGGSVQAGGSLRLSCTVSRYTASVNYMGWFRQAPGKEREGVATIFTGAGTTYYANSVKGRFTISRDNAKNTAYLQMNSLKPEDTAIYYCAVDFRGGLLYRPAYEYTYRGQGTQVTVSSASHHHHHH
observed-property: Abs 630 (100 nM)
measurement-unit: Abs 630
measured: 0.39
